# system: mouse RORγ (Mus musculus)
# Construct: from Ile251 to Lys516 for mouse RORγ; expressed in transfected cells; host or cells: CHO cells (transient co-transfection with pG5-Luc)
# test.method.notes: In-vitro reporter gene assay for inhibitory activity against RORγ transcription, Test Method B (pFA/mRORγ LBD / pG5-Luc in CHO cells)
# Type: cell-based
# cond: luciferase reporter, CHO cells, 2 days
Please respond with y when measured EC50 is strictly beneath 0.04 µM, and with n in all other cases.

compound: CC(C)(C)CCc1ccc([C@@]23CCC(C)(C)CC2=CN(C24CC(C(=O)O)(C2)C4)C(=O)N3)cc1Cl (single isomer, unassigned)
assigned.label: n
//
compound: CC(C)C1CC[C@]2(c3ccc(CCC(C)(C)C)c(Cl)c3)NC(=O)N([C@H]3CC[C@@H](C(=O)O)C3)C=C2C1 (single isomer, unassigned)
assigned.label: n
//
compound: CC1C2=CN(C34CC(C(=O)O)(C3)C4)C(=O)N[C@]2(c2ccc(CCC(C)(C)C)c(Cl)c2)CCC1(C)C (single isomer, unassigned)
assigned.label: n
//
compound: CC1C2=CN(C34CC(C(=O)O)(C3)C4)C(=O)NC2(c2ccc(CCC(C)(C)C)c(Cl)c2)CC1(C)C (single isomer, unassigned) [Example 34]
assigned.label: n
//
compound: CC1CC[C@@]2(c3ccc(CCC(C)(C)C)c(Cl)c3)NC(=O)N(C34CCC(C(=O)O)(C3)C4)C=C2C1 (single isomer, unassigned)
assigned.label: y
//
compound: CC1C2=CN(C34CC(C(=O)O)(C3)C4)C(=O)N[C@]2(c2ccc(CCC(C)(C)C)c(Cl)c2)COC1(C)C (single isomer, unassigned) [Example 110]
assigned.label: y
//
compound: CC(C)(C)CCc1ccc([C@]23CCC(C)(C)CC2=CN(C24CC(C(=O)O)(C2)C4)C(=O)N3)cc1Cl (single isomer, unassigned)
assigned.label: n
//
compound: CC(C)(C)CCc1ccc(C23CCC(C#N)CC2=CN(C24CC(C(=O)O)(C2)C4)C(=O)N3)cc1Cl (single isomer, unassigned)
assigned.label: n
//
compound: CC1C2=CN(C34CC(C(=O)O)(C3)C4)C(=O)N[C@]2(c2ccc(CCC(C)(C)C)c(Cl)c2)COC1(C)C (single isomer, unassigned) [Example 109]
assigned.label: y

Now look at this entry.
Strictly below 0.04 µM in EC50? C[C@H]1CCC2(c3ccc(CCC(C)(C)C)c(Cl)c3)NC(=O)N(C34CC(C(=O)O)(C3)C4)C=C2[C@@H]1C (single isomer, unassigned)
y

* * *

# system: human RORγ (Homo sapiens)
# Construct: from Ser253 to Lys518 for human RORγ; expressed in transfected cells; host or cells: CHO cells (transient co-transfection with pG5-Luc)
# Sequence (P51449 253-518): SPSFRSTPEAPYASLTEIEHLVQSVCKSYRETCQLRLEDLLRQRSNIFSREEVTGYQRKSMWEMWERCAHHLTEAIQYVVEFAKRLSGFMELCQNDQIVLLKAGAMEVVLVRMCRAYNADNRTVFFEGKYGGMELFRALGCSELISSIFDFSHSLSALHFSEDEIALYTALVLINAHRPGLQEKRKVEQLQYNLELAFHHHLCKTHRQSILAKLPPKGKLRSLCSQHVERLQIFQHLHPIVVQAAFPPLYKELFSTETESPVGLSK
# test.method.notes: In-vitro reporter gene assay for inhibitory activity against RORγ transcription, Test Method A (GAL4-hRORγ LBD / pG5-Luc in CHO cells)
# Assay type: cell-based
# cond: luciferase reporter, 2 days
measured.quantity: EC50 (µM)
Give just the numeric value; µM need not be written.

compound: CC1CCCC2(c3ccc(CCC(C)(C)C)c(Cl)c3)NC(=O)N(C34CC(C(=O)O)(C3)C4)C=C12 (racemic)
system: human RORγ (Homo sapiens)
measured.quantity: EC50
observed.result: 0.014

Okay, now this compound:
Recorded EC50 for CC(C)(C)CCc1ccc(C23CCC(F)(F)CC2=CN(CCC(=O)O)C(=O)N3)cc1Cl (racemic) , please?
0.022

* * *

The following molecules are listed with their measured EC50 values.
# system: mouse RORγ (Mus musculus, UniProt P51450)
# Construct: from Ile251 to Lys516 for mouse RORγ; expressed in transfected cells; host or cells: CHO cells (transient co-transfection with pG5-Luc)
# test.method.notes: In-vitro reporter gene assay for inhibitory activity against RORγ transcription, Test Method A (GAL4-mRORγ LBD / pG5-Luc in CHO cells)
# Format: cell-based
# cond: luciferase reporter, 2 days
Give just the numeric value; µM need not be written.

molecule: CC(=O)N1CC2=CN(CCC(=O)O)C(=O)NC2(c2ccc(CCC(C)(C)C)c(Cl)c2)C1 (racemic) [Example 14]
observed.result: 3.8

Consider the record given below.
// query EC50 value for entry CC(C)(C)CCc1ccc([C@@]23COC(CO)C2=CN(CCC(=O)O)C(=O)N3)cc1Cl (single isomer, unassigned) [Example 18]
0.452

* * *

# system: mouse RORγ (Mus musculus, UniProt P51450)
# Construct: from Ile251 to Lys516 for mouse RORγ; expressed in transfected cells; host or cells: CHO cells (transient co-transfection with pG5-Luc)
# Sequence (P51450 251-516): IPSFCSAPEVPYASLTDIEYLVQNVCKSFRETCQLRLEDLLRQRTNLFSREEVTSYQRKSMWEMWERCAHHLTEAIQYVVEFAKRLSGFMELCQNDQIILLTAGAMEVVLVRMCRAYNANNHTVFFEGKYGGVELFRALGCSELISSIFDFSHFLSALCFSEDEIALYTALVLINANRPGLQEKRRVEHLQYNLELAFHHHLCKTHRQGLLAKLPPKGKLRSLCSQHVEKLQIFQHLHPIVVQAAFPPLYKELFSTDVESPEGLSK
# test.method.notes: In-vitro reporter gene assay for inhibitory activity against RORγ transcription, Test Method A (GAL4-mRORγ LBD / pG5-Luc in CHO cells)
# Format: cell-based
# cond: luciferase reporter, 2 days
Entries and their log10 EC50 values follow.
// units: µM (pre-log); metric: EC50; scale: log10

molecule: CC(C)(C)CCc1ccc([C@]23CCC(C)(C)CC2=CN(CCC(=O)O)C(=O)N3)cc1Cl (single isomer, unassigned)
system: mouse RORγ (Mus musculus, UniProt P51450)
log10 EC50: 0.99

Turning now to a further record.
Fill in: log10 EC50 of COC1CC[C@]2(c3ccc(CCC(C)(C)C)c(Cl)c3)NC(=O)N(C34CC(C(=O)O)(C3)C4)C=C2C1 (single isomer, unassigned) is ___
0.48

* * *

# system: mouse RORγ (Mus musculus, UniProt P51450)
# Construct: from Ile251 to Lys516 for mouse RORγ; expressed in transfected cells; host or cells: CHO cells (transient co-transfection with pG5-Luc)
# test.method.notes: In-vitro reporter gene assay for inhibitory activity against RORγ transcription, Test Method A (GAL4-mRORγ LBD / pG5-Luc in CHO cells)
# Format: cell-based
# cond: luciferase reporter, 2 days
Each entry below carries its reported EC50.
Value expressed in µM; do not type the unit.

I'd like to know its EC50. The molecule in question is CC1CC[C@@]2(c3ccc(CCC(C)(C)C)c(Cl)c3)NC(=O)N(CCC(=O)O)C=C2C1 (single isomer, unassigned)
0.019

Quick one: EC50 of CC(C)(C)CCc1ccc(C23COC(C)(C)C2=CN(CCC(=O)O)C(=O)N3)cc1Cl (single isomer, unassigned) [Example 6] ?
0.714

Dear colleague, I am looking for the recorded EC50 of the following molecule: CCOC(=O)CCN1C=C2CN(C(=O)OC(C)(C)C)CC2(c2ccc(CCC(C)(C)C)c(Cl)c2)NC1=O (racemic)
5.37

Requested read-out: EC50. Entry: CCOC(=O)CCN1C=C2C(CC(=O)O)CCCC2(c2ccc(CCC(C)(C)C)c(Cl)c2)NC1=O (racemic)
0.84

What value of EC50 has been reported for the following molecule? CC(C)(C)CCc1ccc(C23COC(C)(C)C2=CN(c2ccc(C(=O)O)cc2)C(=O)N3)cc1Cl (single isomer, unassigned) [Example 7]
0.011

Item under review: C[C@@H]1CC2=CN(CCC(=O)O)C(=O)NC2(c2ccc(CCC(C)(C)C)c(Cl)c2)CO1 (single isomer, unassigned) . Reported EC50?
0.007

* * *

# system: human RORγ (Homo sapiens)
# Construct: from Ser253 to Lys518 for human RORγ; expressed in transfected cells; host or cells: CHO cells (transient co-transfection with pG5-Luc)
# test.method.notes: In-vitro reporter gene assay for inhibitory activity against RORγ transcription, Test Method A (GAL4-hRORγ LBD / pG5-Luc in CHO cells)
# Type: cell-based
# cond: luciferase reporter, 2 days
measured.quantity: EC50 (µM)
Response body: numeric value in µM, unit text excluded.

compound: CC(C)(C)CCc1ccc([C@]23CCC(C)(C)C2=CN(c2ccc(C(=O)O)cc2)C(=O)N3)cc1Cl (single isomer, unassigned)
system: human RORγ (Homo sapiens)
measurement.unit: µM
EC50: 0.819

Please report the recorded EC50 for CC(C)(C)CCc1ccc(C23CCCC2=CNC(=O)N3)cc1Cl (racemic) .
0.224

Which EC50 reading was recorded for the compound CC(C)(C)CCc1ccc(C23COC(C)(C)C2=CN(CCC(=O)O)C(=O)N3)cc1Cl (single isomer, unassigned) [Example 6] ?
0.554
